- tgt: T1, CRBN, Q96SW2
- T1 chain: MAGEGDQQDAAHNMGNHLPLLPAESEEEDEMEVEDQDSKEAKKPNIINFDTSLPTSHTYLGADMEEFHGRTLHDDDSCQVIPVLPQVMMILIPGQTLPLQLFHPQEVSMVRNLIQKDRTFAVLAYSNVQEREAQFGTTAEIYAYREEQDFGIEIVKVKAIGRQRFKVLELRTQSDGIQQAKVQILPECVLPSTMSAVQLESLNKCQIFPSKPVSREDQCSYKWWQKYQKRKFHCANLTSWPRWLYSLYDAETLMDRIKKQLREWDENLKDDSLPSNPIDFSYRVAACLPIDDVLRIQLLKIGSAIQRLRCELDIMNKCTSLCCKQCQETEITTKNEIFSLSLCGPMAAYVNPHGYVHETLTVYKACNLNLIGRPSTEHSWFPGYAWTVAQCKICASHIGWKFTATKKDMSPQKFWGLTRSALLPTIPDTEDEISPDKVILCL
- assay.explanation: log2 fold change of degron read counts, EGFP-low vs EGFP+ sorted cells (limma voom), compound-induced degradation; higher = more compound-induced degradation of the degron-EGFP fusion; degrons are variants of IKZF1/3 zinc finger 2; compound dose not given here;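 further: pooled lentiviral library of zinc finger degron-EGFP fusions in mCherry-positive Jurkat cells, FACS-sorted after compound exposure, with degron abundance counted by next-generation sequencing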
- assay.conditions: Jurkat; 18 h; compound: compound 19 (5-tert-butyl-thalidomide)
In all, about 8,300 sequences were measured (“log2 fold change of degron read counts, EGFP-low vs EGFP+ sorted cells (limma voom), compound-induced degradation”: median about -1.1, highest 2% from about 3.2 on). What follows is part of a selection rich in the highest values, with near analogues and random picks from the rest.
Please go through the items and note down their log2 fold change of degron read counts.
Numbers only.

Previously resolved entries follow.
>  <seq.string>
FACPQCGAFFTQKGNLLRHIKL [46F_47A_49P_50Q_52G_53A_54F_55F_67L_, Q9UKT9]

>  <property.measured>
log2 fold change of degron read counts

>  <reported.measurement>
-0.715

$$$$
>  <seq.string>
FVCEICGRPFTQKGNLLRHIKL [46F_47V_49E_50I_52G_53R_54P_55F_67L_, Q9UKT9]

>  <property.measured>
log2 fold change of degron read counts

>  <reported.measurement>
-1.68

$$$$
>  <seq.string>
LWCEICGFRCTQKGNLLRHIKL [46L_47W_49E_50I_52G_53F_54R_55C_67L_, Q9UKT9]

>  <property.measured>
log2 fold change of degron read counts

>  <reported.measurement>
3.39

$$$$
>  <seq.string>
LDCPICGFTCTQKGNLLRHIKL [46L_47D_49P_50I_52G_53F_54T_55C_67L_, Q9UKT9]

>  <property.measured>
log2 fold change of degron read counts

>  <reported.measurement>
1.14

$$$$
>  <seq.string>
FDCEQCGACFTQKGNLLRHIKL [46F_47D_49E_50Q_52G_53A_54C_55F_67L_, Q9UKT9]

>  <property.measured>
log2 fold change of degron read counts

>  <reported.measurement>
-1.94

$$$$
>  <seq.string>
LRCNQCGFACTQKGNLLRHIKL [46L_47R_49N_50Q_52G_53F_54A_55C_67L_, Q9UKT9]

>  <property.measured>
log2 fold change of degron read counts

>  <reported.measurement>
-1.46

$$$$

Now, please, on to the next sequence.
Read the entry LNCPICGFTCTQKGNLLRHIKL [46L_47N_49P_50I_52G_53F_54T_55C_67L_, Q9UKT9] and write its reported log2 fold change of degron read counts.
2.24

Recorded values, source the supplement of paper PMC12645437.
